Experiment: viability loss of HPDE-C7K cells – cell-based, fluorescence, HTS, primary screen (AID 431);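 further: 0% = DMSO solvent wells and 100% = doxorubicin-treated wells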
Details: HPDE-C7K KRASV12 cells, Alamar Blue viability, 48 h; at 10 µM; active compounds read high
Hit rate of the full screen: of about 63,000 compounds, about 1,100 (1.7%) were called active. The list comes from a sample in which actives are over-represented; it also holds close analogues and randomly drawn compounds. Results with a measured potency or affinity are listed apart.
Test Readout: cytotoxicity (%)
Give the quantity in %, number only.

# Molecule, cytotoxicity [%]
measured = [
    ("CCCCNC(=O)c1sc(=S)n2c1[nH]c(=O)c1ccccc12", 62.6),
    ("c1csc(CSc2nc3ccccc3s2)c1", -17.1),
    ("C=CCn1c(N)c(C(=O)NCc2ccco2)sc1=S", 7.1),
    ("Cc1cccc(C2CC(c3ccccc3)Nc3ncnn32)c1 (stereo unspecified)", 0),
    ("Cn1c(=O)oc2cc(S(=O)(=O)NCCC(=O)NCCc3ccccc3)ccc21", 0.1),
]

Which cytotoxicity is reported for this molecule? `O=C(COc1ccc(Cl)cc1)NCc1nnc(SCC(=O)Nc2ccccc2)o1` -7.7

Which cytotoxicity is reported for this molecule? `CCCCCCNC(=O)c1c(O)c2ccccc2[nH]c1=O` -1.5

Which cytotoxicity is reported for this molecule? CCOC(=O)C1C(c2cccc(Cl)c2Cl)NC(=O)NC1(O)C(F)(F)F (stereo unspecified) 10.1

Which cytotoxicity is reported for this molecule? `O=C(CN1CCN(C(=O)c2ccco2)CC1)Nc1ccccc1-c1ccccc1` 3

Which cytotoxicity is reported for this molecule? `Cc1ccc(C2C3=C(CC(C)(C)CC3=O)NC3=C2C(=O)CC(C)(C)C3)o1` -0.9

Which cytotoxicity is reported for this molecule? `C/C(Cl)=C\Cn1c(N2CCCCCC2)nc2c1c(=O)n(C)c(=O)n2C` 12

###

Assay: viability loss of HPDE-C7K cells – cell-based, fluorescence, HTS, primary screen (AID 431);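 further: 0% = DMSO solvent wells and 100% = doxorubicin-treated wells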
Settings: HPDE-C7K KRASV12 cells, Alamar Blue viability, 48 h; at 10 µM
The whole screen tested about 63,000 compounds, of which about 1,100 (1.7%) were called active.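 Rule for the calls: active = compounds whose percent cytotoxicity in the single-dose primary screen, scaled between solvent and toxic-drug controls, exceeds 50; inactive = the rest.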 Shown is part of a subset that was picked to be rich in actives. Measured potencies and affinities stand elsewhere.
Give one outcome, nothing more. List: T (active), F (inactive)

# Compound, Class
rows = [
    ("CSc1nnc(Cn2c(=O)sc3ccccc32)n1C", "F"),
    ("COC(=O)c1ccc(CSc2nc3scc(-c4cccs4)c3c(=O)[nH]2)o1", "T"),
    ("COC(=O)c1ccc(CSc2nc3c(cnn3-c3ccc(F)cc3)c(=O)[nH]2)o1", "F"),
]

Per the records of this test, what outcome belongs to `CCOC(=O)c1c(C)[nH]c(C(=O)CSc2nnnn2-c2ccccc2)c1C` ? F

Per the records of this test, what outcome belongs to `COC(=O)c1[nH]c2ccc(C)cc2c1NS(=O)(=O)c1ccc(F)c(C)c1` ? F

Per the records of this test, what outcome belongs to Cc1cc(C)n(CC(O)Cn2c3ccccc3c3ccccc32)c(=O)n1 (configuration not stated) ? F

Per the records of this test, what outcome belongs to CCOC(=O)C1CCCN(c2c(NCc3ccco3)c(=O)c2=O)C1 (configuration not stated) ? F

Per the records of this test, what outcome belongs to `CCCNC1=C(C)C(=O)CC1` ? F

Per the records of this test, what outcome belongs to COCCN(C(=O)CCC(=O)Nc1cccnc1)C(C(=O)NC1CCCCC1)c1ccccc1 (configuration not stated) ? F

Per the records of this test, what outcome belongs to O=C1OCC2=C1C(c1ccc3c(c1)OCO3)Sc1ccccc1N2 (configuration not stated) ? F

Per the records of this test, what outcome belongs to O=C1NC(c2ccncc2)Nc2ccccc21 (configuration not stated) ? F

Per the records of this test, what outcome belongs to O=S1(=O)CCC(NCC2CCCO2)C1 (configuration not stated) ? F

###

Test: viability loss of HPDE-C7K cells – cell-based, fluorescence, HTS, primary screen (AID 431);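 further: 0% = DMSO solvent wells and 100% = doxorubicin-treated wells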
Details: HPDE-C7K KRASV12 cells, Alamar Blue viability, 48 h; at 10 µM; active compounds read high
The campaign covered roughly 63,000 compounds. About 1,100 (1.7%) were called active. The entries come from a sample that favours actives as a whole. Measured potencies and affinities stand elsewhere.
Rule: cytotoxicity below 40% gives rule met, anything at or above gives rule not met.

# Molecule, Class
records = [
    ("COc1ccc(C(=O)N2CCc3cc(OC)c(OC)cc3C2)cc1OC", "rule met"),
    ("CCCC(C(=O)NCc1ccco1)N(C(=O)CNS(=O)(=O)c1ccc(Cl)cc1)C1CCCC1 (stereo not drawn)", "rule met"),
    ("CCOc1ccccc1C1CC(=O)Nc2cc3c(cc21)OCCO3 (stereo not drawn)", "rule not met"),
    ("CCCCOc1ccccc1C1CC(=O)NC2=C1C(=O)CCC2 (stereo not drawn)", "rule not met"),
    ("CC(C)(C)c1cc(CN2CCN(CCO)CC2)cc(C(C)(C)C)c1O", "rule met"),
]

Quick check: cytotoxicity of CCOC(=O)C1CCCN(C(=O)c2ccc3c(c2)NC(=O)C(N2CCOCC2)S3)C1 (stereo not drawn) under 40%? rule met

Quick check: cytotoxicity of `O=C(NCCCN1CCN(c2ccccc2F)CC1)Nc1ccc(F)cc1` under 40%? rule met

Quick check: cytotoxicity of CC(=O)Nc1ccc(OC(F)(F)C(F)C(F)(F)F)c(NC(C)=O)c1 (stereo not drawn) under 40%? rule met

Quick check: cytotoxicity of COc1ccccc1C1CC(=O)Nc2cc3c(cc21)OCCO3 (stereo not drawn) under 40%? rule not met

Quick check: cytotoxicity of Cc1c(C(=O)N2CCOCC2)[nH]c2c1C(=O)CC(c1ccccc1Cl)C2 (stereo not drawn) under 40%? rule not met

Quick check: cytotoxicity of `O=C(c1cc2ccccn2n1)N1CCCC1` under 40%? rule met

Quick check: cytotoxicity of `CCOc1cc(C(=O)N2CCc3cc(OC)c(OC)cc3C2)ccc1OC(F)F` under 40%? rule not met

Quick check: cytotoxicity of COC(=O)c1[nH]c2c(c1C)C(=O)CC(c1ccccc1)C2 (stereo not drawn) under 40%? rule not met

Quick check: cytotoxicity of CC(C)Oc1ccccc1C1CC(=O)Nc2cc3c(cc21)OCO3 (stereo not drawn) under 40%? rule not met

Quick check: cytotoxicity of CC(C)Oc1ccccc1C1CC(=O)Nc2cc3c(cc21)OCCO3 (stereo not drawn) under 40%? rule not met

Quick check: cytotoxicity of Cc1c(C(=O)N2CCOCC2)[nH]c2c1C(=O)CC(c1ccc(Cl)cc1)C2 (stereo not drawn) under 40%? rule met

Quick check: cytotoxicity of CCOc1ccccc1C1CC(=O)NC2=C1C(=O)CCC2 (stereo not drawn) under 40%? rule met

Quick check: cytotoxicity of CCOc1c(OC)cccc1C1CC(=O)Nc2cc3c(cc21)OCCO3 (stereo not drawn) under 40%? rule met

Quick check: cytotoxicity of `CCn1c(SCC(=O)c2ccccc2)nnc1-c1cc2cc(Br)ccc2o1` under 40%? rule met

Quick check: cytotoxicity of CCCOc1c(OC)cccc1C1CC(=O)Nc2cc3c(cc21)OCO3 (stereo not drawn) under 40%? rule met

Quick check: cytotoxicity of `COCCNC(=O)c1cc(-c2ccc(Cl)c(Cl)c2)on1` under 40%? rule met

Quick check: cytotoxicity of COCCOC(=O)c1[nH]c2c(c1C)C(=O)CC(c1ccc(N(C)C)cc1)C2 (stereo not drawn) under 40%? rule met

Quick check: cytotoxicity of `Clc1ccc(OCc2nn3c(C4CCCCC4)nnc3s2)cc1` under 40%? rule met

###

Assay: viability loss of HPDE-C7K cells – cell-based, fluorescence, HTS, primary screen (AID 431);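 further: 0% = DMSO solvent wells and 100% = doxorubicin-treated wells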
Conditions: HPDE-C7K KRASV12 cells, Alamar Blue viability, 48 h; at 10 µM
Out of some 63,000 compounds screened, about 1,100 (1.7%) were called active.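 The calls were made as follows: active = compounds whose percent cytotoxicity in the single-dose primary screen, scaled between solvent and toxic-drug controls, exceeds 50; inactive = the rest.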 The sample holds actives, similar compounds and a random draw of the others, so the mix is not that of the screen. Entries with a potency or affinity are not part of this list.
Give one outcome, nothing more. List: 1.0 for active, 0.0 for inactive

Before answering, review these 2 worked examples.
# Compound, Class
data = [
    ("CCc1nc(Nc2ccncc2)c2oc3ccccc3c2n1", 1.0),
    ("CCCCn1c(SCC(=O)Nc2cc(C)on2)nc2ccsc2c1=O", 0.0),
]

Per the records of this test, what outcome belongs to O=C(Nc1ccc(S(=O)(=O)N2CCCc3ccccc32)cc1)C1CCCO1 (configuration not stated) ? 0.0

Per the records of this test, what outcome belongs to `Cc1nc(SCC(=O)N2CCN(c3ccccc3)CC2)c2oc3ccccc3c2n1` ? 1.0

Per the records of this test, what outcome belongs to `O=c1[nH]nc2c3ccccc3cnn12` ? 0.0

Per the records of this test, what outcome belongs to CCC1CCCCN1S(=O)(=O)c1ccc(C(=O)Nc2nnc(-c3ccccc3Cl)o2)cc1 (configuration not stated) ? 1.0

Per the records of this test, what outcome belongs to `CC(C)(C)NC(=O)Nc1ccccc1C(N)=O` ? 0.0

Per the records of this test, what outcome belongs to `O=C(Nc1nnc(-c2ccccc2Cl)o1)c1cccnc1` ? 0.0

Per the records of this test, what outcome belongs to O=C(NC1CCCCC1)C(c1ccc(F)cc1)N(Cc1ccco1)C(=O)Cn1nnc2ccccc21 (configuration not stated) ? 0.0

Per the records of this test, what outcome belongs to `CC1(C)COCN1S(=O)(=O)c1ccc(C(=O)Nc2nnc(-c3ccc(Cl)s3)o2)cc1` ? 1.0

Per the records of this test, what outcome belongs to `CCCC(=O)Nc1nnc(-c2ccc(Cl)s2)o1` ? 0.0

Per the records of this test, what outcome belongs to `O=C(CSc1nc2sc3c(c2c(=O)n1-c1ccccc1)CCCC3)NCc1ccco1` ? 1.0

Per the records of this test, what outcome belongs to CCC1CCCCN1S(=O)(=O)c1ccc(C(=O)Nc2nnc(-c3cccs3)o2)cc1 (configuration not stated) ? 0.0

Per the records of this test, what outcome belongs to CCC(C)(C)NC(=O)C(c1ccccc1F)N(Cc1ccco1)C(=O)Cn1nnc2ccccc21 (configuration not stated) ? 0.0
